Molecular target: 5-hydroxytryptamine receptor 2B (Homo sapiens, UniProt P41595)
Sequence (P41595 whole entry): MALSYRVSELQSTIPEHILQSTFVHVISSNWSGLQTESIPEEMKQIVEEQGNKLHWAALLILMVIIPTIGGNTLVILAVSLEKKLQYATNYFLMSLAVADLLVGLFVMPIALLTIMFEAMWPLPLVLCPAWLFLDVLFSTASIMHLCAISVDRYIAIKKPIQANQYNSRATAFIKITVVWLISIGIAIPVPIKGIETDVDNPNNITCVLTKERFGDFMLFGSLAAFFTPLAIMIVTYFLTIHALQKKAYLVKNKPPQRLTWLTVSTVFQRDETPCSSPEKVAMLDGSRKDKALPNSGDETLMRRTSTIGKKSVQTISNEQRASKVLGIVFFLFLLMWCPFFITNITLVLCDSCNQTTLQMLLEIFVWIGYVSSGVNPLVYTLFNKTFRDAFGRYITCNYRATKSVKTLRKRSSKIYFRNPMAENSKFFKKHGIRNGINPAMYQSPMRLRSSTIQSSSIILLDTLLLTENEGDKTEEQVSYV
Experiment: Agonist at human 5HT2B receptor expressed in HEK293 cells assessed as induction of calcium influx by FLIPR assay
MEASURE: pEC50
In textbook form, pEC50 equals minus log to base ten of the concentration in mol/L.

Identify the reported pEC50 for the following entry. CC[C@@H](CO)NC(=O)[C@@H]1C=C2c3cccc4[nH]cc(c34)C[C@H]2N(C)C1
7.67

* * *

So I've got a bunch of molecules here, and I need their pKi values.
In textbook form, pKi equals minus log to base ten of the concentration in mol/L.

Provide 5-hydroxytryptamine receptor 2B (Homo sapiens, UniProt P41595) pKi reading for COc1ccc2[nH]cc(CN)c2c1 .
5.79

Provide 5-hydroxytryptamine receptor 2B (Homo sapiens, UniProt P41595) pKi reading for Fc1ccc(N2CCN(CCC3OCCc4ccccc43)CC2)cc1 (stereo unspecified) .
7.16

Provide 5-hydroxytryptamine receptor 2B (Homo sapiens, UniProt P41595) pKi reading for CC[C@@H](CO)NC(=O)[C@@H]1C=C2c3cccc4[nH]cc(c34)C[C@H]2N(C)C1 .
9.10

Provide 5-hydroxytryptamine receptor 2B (Homo sapiens, UniProt P41595) pKi reading for CC(NCCC(c1ccccc1)c1ccccc1)c1ccccc1 (stereo unspecified) .
5.49

Provide 5-hydroxytryptamine receptor 2B (Homo sapiens, UniProt P41595) pKi reading for COc1ccc2[nH]c3c(c2c1)CCNC3C (stereo unspecified) .
6.31
